- experimental target: T1, IL-6R-Fc 항원 (human, UniProt P08887 20-365, limits assumed)
- T1 construct: domain: IL-6R full domain; Made in-house as IL-6R-Fc; also called IL-6R full; IL-6R full domain인 단백질; not shown: Fc part (vector pYK 604)
- T1 sequence (looked up): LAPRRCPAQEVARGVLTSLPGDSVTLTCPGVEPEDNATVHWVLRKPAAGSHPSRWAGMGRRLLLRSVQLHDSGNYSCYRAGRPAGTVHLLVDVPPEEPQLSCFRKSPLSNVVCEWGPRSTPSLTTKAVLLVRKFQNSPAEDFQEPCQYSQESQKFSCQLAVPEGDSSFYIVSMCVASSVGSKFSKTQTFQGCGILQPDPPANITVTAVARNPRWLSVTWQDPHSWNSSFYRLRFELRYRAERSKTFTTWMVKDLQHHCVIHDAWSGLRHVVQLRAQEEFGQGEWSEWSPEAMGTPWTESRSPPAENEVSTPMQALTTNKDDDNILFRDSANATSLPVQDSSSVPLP
- experimental protocol: ELISA; IL-6R coated 100 ng/well; IgG at 6.25 nM; anti-Fab-HRP
Each record here notes measured OD 490 nm.
The response must be a number in OD490 with no trailing unit.

binder: 항 IL-6R 단클론 항체 D2 (antibody, V domains shown) VH: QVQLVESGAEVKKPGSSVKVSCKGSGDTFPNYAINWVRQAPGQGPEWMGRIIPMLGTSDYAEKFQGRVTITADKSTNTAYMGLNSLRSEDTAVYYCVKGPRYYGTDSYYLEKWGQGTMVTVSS VL: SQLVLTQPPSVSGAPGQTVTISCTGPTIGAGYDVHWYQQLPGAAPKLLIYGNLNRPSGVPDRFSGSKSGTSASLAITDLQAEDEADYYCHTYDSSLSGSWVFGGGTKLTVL
reported metric: OD 490 nm
experimental value: 0.981
//
binder: 항 IL-6R 단클론 항체 A7 (antibody, V domains shown) VH: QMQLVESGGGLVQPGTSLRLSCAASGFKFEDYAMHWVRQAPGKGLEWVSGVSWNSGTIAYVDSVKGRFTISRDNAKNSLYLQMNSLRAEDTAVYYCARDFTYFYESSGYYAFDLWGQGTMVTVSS VL: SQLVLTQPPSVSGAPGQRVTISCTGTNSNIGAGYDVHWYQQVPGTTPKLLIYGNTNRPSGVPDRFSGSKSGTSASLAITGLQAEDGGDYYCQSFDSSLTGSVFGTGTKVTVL
reported metric: OD 490 nm
experimental value: 2.13
//
binder: 항 IL-6R 단클론 항체 F2 (antibody, V domains shown) VH: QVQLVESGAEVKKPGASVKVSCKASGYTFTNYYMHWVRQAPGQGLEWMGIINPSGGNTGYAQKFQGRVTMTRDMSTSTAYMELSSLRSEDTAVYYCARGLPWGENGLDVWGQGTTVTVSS VL: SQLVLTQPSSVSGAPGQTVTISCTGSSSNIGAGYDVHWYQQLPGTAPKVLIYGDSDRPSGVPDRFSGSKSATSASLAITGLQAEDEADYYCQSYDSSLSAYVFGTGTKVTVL
reported metric: OD 490 nm
experimental value: 2.71

Now consider the entry below.
What does the data say about its OD 490 nm? Entry: 항 IL-6R 단클론 항체 B10 (antibody, V domains shown) VH: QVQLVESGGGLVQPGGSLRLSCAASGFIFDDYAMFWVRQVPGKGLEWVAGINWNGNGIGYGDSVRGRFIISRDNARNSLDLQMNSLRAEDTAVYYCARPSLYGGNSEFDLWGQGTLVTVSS VL: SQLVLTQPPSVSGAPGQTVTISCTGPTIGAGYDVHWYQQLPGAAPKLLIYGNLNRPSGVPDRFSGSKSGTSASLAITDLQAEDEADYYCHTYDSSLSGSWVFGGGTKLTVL
1.04
